experiment: mitochondrial membrane potential change in A549 cells, profiling panel, cell-based, JC-1 fluorescence, basal, 24 h, 100 nL (AID 1138); conditions: higher = more signal;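 note: A549 lung adenocarcinoma cells under basal conditions with no added stimulus; test concentration not given here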
metric: z-score

Retrieve z-score measured for COc1ccc(NN2C(C(O)c3ccc(F)cc3)C=CC3C(=O)N(C4CCCCC4)C(=O)C32)cc1 (stereo not given) and print it.
-0.462

Retrieve z-score measured for Cc1c(NC(=O)/C(C#N)=C/C=C/c2ccc([N+](=O)[O-])cc2)c(=O)n(-c2ccccc2)n1C and print it.
0.138

Retrieve z-score measured for CC(=O)NCCCC[C@@H]1NC(=O)[C@H]2C[C@@H](C(=O)O)[C@@H](c3cccc(OCCO)c3)N2C1=O and print it.
-0.253

Retrieve z-score measured for Cc1ccc(S[C@]2(C(=O)NCC(C)C)CC(=O)N(C(C)C)[C@@H]2c2ccc(CO)cc2I)cc1 and print it.
-0.294

Retrieve z-score measured for CC[C@@H]1C=C(C(=O)O)[C@H](c2cccc(Cl)c2)N1S(=O)(=O)c1ccc(C)cc1 and print it.
0.435

Retrieve z-score measured for COc1ccc(C#Cc2ccc3c(c2)[C@]2(C(=O)N3)[C@H](c3ccccc3OCCO)N3[C@H](c4ccccc4)[C@H](c4ccccc4)OC(=O)[C@H]3[C@@H]2C(=O)NC[C@H](O)c2ccccc2)cc1 and print it.
-1.25

Retrieve z-score measured for CC(C)c1ccc(NN2C(C(O)C3CCCCC3)C=CC3C(=O)N(c4ccccc4)C(=O)C32)cc1 (stereo not given) and print it.
0.257

Retrieve z-score measured for CCOC(=O)C=C1C[C@@H](c2cccc([N+](=O)[O-])c2)O[C@@H](c2cccc([N+](=O)[O-])c2)O1 and print it.
3.03

Retrieve z-score measured for O=C1NC(=O)C2C1C=CC(C(O)C(O)CO)N2Nc1ccccn1 (stereo not given) and print it.
0.767

Retrieve z-score measured for C=C(C(=O)CC[C@@H](OC(=O)c1cccnc1)c1cccc(OCCO)c1)C(C)C and print it.
0.313

Retrieve z-score measured for CCCC[C@@H](O)C1=C(C)Cn2c(=O)n(-c3ccccc3)c(=O)n2[C@H]1CO and print it.
2.01

Retrieve z-score measured for CCCC1(C(=O)OC)C=C2C(=C(C(C)C)C(=O)C2C)CN1 (stereo not given) and print it.
0.905

Retrieve z-score measured for COC(=O)[C@@]1(Cc2ccc(F)cc2)[C@@H]2C(=CC(=O)[C@H]2CC(=O)C(=O)N2CCCC2)CN1C(=O)c1ccccc1 and print it.
0.711

Retrieve z-score measured for C=C[C@H](OC)[C@@H](O)c1ccc(OC)c(O)c1 and print it.
0.793

Retrieve z-score measured for COCCOC(=O)N1C(=O)[C@@]2(c3cc(C#CCNC(N)=O)ccc31)[C@H](C(N)=O)[C@H]1C(=O)O[C@H](c3ccccc3)[C@H](c3ccccc3)N1[C@@H]2c1ccc(O)cc1 and print it.
0.222

Retrieve z-score measured for C[C@]1(C(=O)O)c2ccccc2C(=O)N(Cc2cc(C(F)(F)F)cc(C(F)(F)F)c2)[C@H]1c1ccc(CO)cc1 and print it.
-0.401

Retrieve z-score measured for C=C(C(=O)CC[C@@H](OC(=O)c1ccccc1-c1ccccc1C(=O)O)c1cccc(OCCO)c1)C(C)C and print it.
0.282

Retrieve z-score measured for CC(C)C[C@@H]1NC(=O)[C@@H]2C[C@H](C(=O)NCCCCCCNC(=O)CS)[C@H](c3ccc(O)cc3)N2C1=O and print it.
-1.16

Retrieve z-score measured for O=C1C[C@@](C(=O)NCC(F)(F)F)(c2ccc([N+](=O)[O-])cc2)[C@@H](c2ccc(CO)cc2I)N1CC12CC3CC(CC(C3)C1)C2 and print it.
1.73

Retrieve z-score measured for C=C1C(=O)C=C2CN(C(=O)c3ccccc3)[C@@](Cc3ccc(F)cc3)(C(=O)OC)[C@@H]12 and print it.
-3.17

Retrieve z-score measured for COCCOC(=O)N1C(=O)[C@@]2(c3cc(C#CCNC(N)=O)ccc31)[C@H](c1ccccc1OCCO)N1[C@H](c3ccccc3)[C@H](c3ccccc3)OC(=O)[C@H]1[C@@H]2C(=O)N1CCCCCCC1 and print it.
-1.51

Retrieve z-score measured for CO[C@H]1O[C@H](CO)[C@@H](OC(=O)Nc2cccc(F)c2)[C@H](OC(=O)Nc2ccc3c(c2)OCO3)[C@@H]1OC(=O)Nc1ccc2c(c1)OCO2 and print it.
-0.307

Retrieve z-score measured for CN1C(=O)C2C=CC(C(O)COCc3ccccc3)N(Nc3ccc([N+](=O)[O-])cc3[N+](=O)[O-])C2C1=O (stereo not given) and print it.
1.89

Retrieve z-score measured for CN1C(=O)C2C=CC(C(O)c3cccs3)N(N(c3ccccc3)c3ccccc3)C2C1=O (stereo not given) and print it.
0.7

Retrieve z-score measured for COc1ccc(C(=O)Nc2ccc(CN3C(=O)[C@@]4(O[C@@H](CC(=O)N(CCO)Cc5ccccc5)[C@H]([Si](C)(C)c5ccc(OC)cc5)[C@H]4C)c4ccccc43)cc2)cc1 and print it.
-0.266

Retrieve z-score measured for COC(=O)[C@@]1(Cc2ccc(F)cc2)[C@H]2c3cc(C(=O)N4CCCC4)n(C[C@H](O)CO)c3C[C@H]2CN1C(=O)c1ccccc1 and print it.
0.226

Retrieve z-score measured for CC[C@@H](O[Si](C#C[Si](C(C)C)(C(C)C)C(C)C)(C(C)C)C(C)C)c1cn([C@H](C)c2ccccc2)nn1 and print it.
-0.213

Retrieve z-score measured for CN(C)CCCC[C@@H]1NC(=O)[C@H]2C[C@@H](C(=O)NCCCCCCNC(=O)CS)[C@@H](c3cccc(OCCO)c3)N2C1=O and print it.
0.115

Retrieve z-score measured for CC(C)c1ccc(NN2C(C(O)C3=C[C@H]4C[C@@H](C3)C4(C)C)C=CC3C(=O)N(c4ccccc4)C(=O)C32)cc1 (stereo not given in full) and print it.
-0.894

Retrieve z-score measured for O=C1O[C@H](c2ccccc2)[C@H](c2ccccc2)N2[C@H]1[C@@H](C(=O)O)[C@]1(C(=O)Nc3ccccc31)[C@H]2c1ccc(OCCO)cc1 and print it.
0.209
